# System: VZV (varicella zoster virus, strain ELLEN)
# assayRemarks: Plaque reduction antiviral assay in WI-38 cell culture, VZV
# Type: cell-based
# conditionSummary: Human alphaherpesvirus 3; WI-38 monolayers, at least 50% plaque reduction, 5 - 7 days incubation at 37°C; read-out: ID50(μM) for the following viruses VZV
propertyLabel: IC50 (µM)
Numbers only; they are read as µM.

molecule	IC50 / µM
C=C1C(O)C(CO)CC1n1cc(I)c(=O)[nH]c1=O (centres unmarked) [Example 4]	275

// next entry
Task item: What value of IC50 has been reported for the following molecule? C=C1C(O)C(CO)CC1n1cc(C)c(=O)[nH]c1=O (centres unmarked) [Example 3]
Reply: 40

###

# Tested on: HSV-2 (herpes simplex virus type 2, strain 186)
# assayRemarks: Plaque reduction antiviral assay in WI-38 cell culture, HSV-2
# Format: cell-based
# conditionSummary: Human alphaherpesvirus 2, 96 h; WI-38 monolayers, at least 50% plaque reduction, 4 days incubation at 37°C; read-out: ID50(μM) for the following viruses HSV-2
// reported IC50 per item

molecule	testSystem	endpointResult
C=C1C(O)C(CO)CC1n1cc(C)c(=O)[nH]c1=O (centres unmarked)	HSV-2 (herpes simplex virus type 2, strain 186)	> 396 µM

Task item: What value of IC50 has been reported for the following molecule? C=C1C(O)C(CO)CC1n1cc(I)c(=O)[nH]c1=O (centres unmarked)
Reply: > 275 µM

Task item: What value of IC50 has been reported for the following molecule? C=C1C(O)C(CO)CC1n1cnc2c(=O)[nH]c(N)nc21 (centres unmarked)
Reply: 7 to 18 µM

Task item: What value of IC50 has been reported for the following molecule? C=C1C(O)C(CO)CC1n1cnc2c(N)ncnc21 (centres unmarked)
Reply: 383 µM

Task item: What value of IC50 has been reported for the following molecule? C=C1C(O)C(CO)CC1n1cc(C=CBr)c(=O)[nH]c1=O (centres unmarked)
Reply: > 291 µM

###

# assayRemarks: Visible toxicity to the cell monolayers under the antiviral assay conditions
# Type: cell-based
# conditionSummary: human, wi-38 cells; concentration at which toxicity was visible
propertyLabel: MCC (µM)
Numbers only; they are read as µM.

compound	MCC / µM
C=C1C(O)C(CO)CC1n1cnc2c(=O)[nH]c(N)nc21 (centres unmarked)	361
C=C1C(O)C(CO)CC1n1cc(C)c(=O)[nH]c1=O (centres unmarked)	396
C=C1C(O)C(CO)CC1n1cc(I)c(=O)[nH]c1=O (centres unmarked)	275
C=C1C(O)C(CO)CC1n1cc(C=CBr)c(=O)[nH]c1=O (centres unmarked)	291

// next entry
Task item: What value of MCC has been reported for the following compound? C=C1C(O)C(CO)CC1n1cnc2c(N)ncnc21 (centres unmarked)
Reply: 383

###

# System: VZV (varicella zoster virus, strain ELLEN)
# assayRemarks: Plaque reduction antiviral assay in WI-38 cell culture, VZV
# Assay type: cell-based
# conditionSummary: Human alphaherpesvirus 3; WI-38 monolayers, at least 50% plaque reduction, 5 - 7 days incubation at 37°C; read-out: ID50(μM) for the following viruses VZV
propertyLabel: IC50

Past entries and their recorded results:
compound	IC50
C=C1C(O)C(CO)CC1n1cnc2c(N)ncnc21 (stereo not drawn)	> 38 µM
C=C1C(O)C(CO)CC1n1cnc2c(=O)[nH]c(N)nc21 (stereo not drawn)	7 to 18 µM

// next entry
Task item: GET /values?readout=IC50&system=VZV (varicella zoster virus, strain ELLEN)&item= C=C1C(O)C(CO)CC1n1cc(C=CBr)c(=O)[nH]c1=O (stereo not drawn)
Reply: 1.5 to 3 µM
